All figures here come from patent US10800791B2.

# Assay target: human (hACC2) (Homo sapiens, UniProt O00763)
# Sequence (O00763 whole entry): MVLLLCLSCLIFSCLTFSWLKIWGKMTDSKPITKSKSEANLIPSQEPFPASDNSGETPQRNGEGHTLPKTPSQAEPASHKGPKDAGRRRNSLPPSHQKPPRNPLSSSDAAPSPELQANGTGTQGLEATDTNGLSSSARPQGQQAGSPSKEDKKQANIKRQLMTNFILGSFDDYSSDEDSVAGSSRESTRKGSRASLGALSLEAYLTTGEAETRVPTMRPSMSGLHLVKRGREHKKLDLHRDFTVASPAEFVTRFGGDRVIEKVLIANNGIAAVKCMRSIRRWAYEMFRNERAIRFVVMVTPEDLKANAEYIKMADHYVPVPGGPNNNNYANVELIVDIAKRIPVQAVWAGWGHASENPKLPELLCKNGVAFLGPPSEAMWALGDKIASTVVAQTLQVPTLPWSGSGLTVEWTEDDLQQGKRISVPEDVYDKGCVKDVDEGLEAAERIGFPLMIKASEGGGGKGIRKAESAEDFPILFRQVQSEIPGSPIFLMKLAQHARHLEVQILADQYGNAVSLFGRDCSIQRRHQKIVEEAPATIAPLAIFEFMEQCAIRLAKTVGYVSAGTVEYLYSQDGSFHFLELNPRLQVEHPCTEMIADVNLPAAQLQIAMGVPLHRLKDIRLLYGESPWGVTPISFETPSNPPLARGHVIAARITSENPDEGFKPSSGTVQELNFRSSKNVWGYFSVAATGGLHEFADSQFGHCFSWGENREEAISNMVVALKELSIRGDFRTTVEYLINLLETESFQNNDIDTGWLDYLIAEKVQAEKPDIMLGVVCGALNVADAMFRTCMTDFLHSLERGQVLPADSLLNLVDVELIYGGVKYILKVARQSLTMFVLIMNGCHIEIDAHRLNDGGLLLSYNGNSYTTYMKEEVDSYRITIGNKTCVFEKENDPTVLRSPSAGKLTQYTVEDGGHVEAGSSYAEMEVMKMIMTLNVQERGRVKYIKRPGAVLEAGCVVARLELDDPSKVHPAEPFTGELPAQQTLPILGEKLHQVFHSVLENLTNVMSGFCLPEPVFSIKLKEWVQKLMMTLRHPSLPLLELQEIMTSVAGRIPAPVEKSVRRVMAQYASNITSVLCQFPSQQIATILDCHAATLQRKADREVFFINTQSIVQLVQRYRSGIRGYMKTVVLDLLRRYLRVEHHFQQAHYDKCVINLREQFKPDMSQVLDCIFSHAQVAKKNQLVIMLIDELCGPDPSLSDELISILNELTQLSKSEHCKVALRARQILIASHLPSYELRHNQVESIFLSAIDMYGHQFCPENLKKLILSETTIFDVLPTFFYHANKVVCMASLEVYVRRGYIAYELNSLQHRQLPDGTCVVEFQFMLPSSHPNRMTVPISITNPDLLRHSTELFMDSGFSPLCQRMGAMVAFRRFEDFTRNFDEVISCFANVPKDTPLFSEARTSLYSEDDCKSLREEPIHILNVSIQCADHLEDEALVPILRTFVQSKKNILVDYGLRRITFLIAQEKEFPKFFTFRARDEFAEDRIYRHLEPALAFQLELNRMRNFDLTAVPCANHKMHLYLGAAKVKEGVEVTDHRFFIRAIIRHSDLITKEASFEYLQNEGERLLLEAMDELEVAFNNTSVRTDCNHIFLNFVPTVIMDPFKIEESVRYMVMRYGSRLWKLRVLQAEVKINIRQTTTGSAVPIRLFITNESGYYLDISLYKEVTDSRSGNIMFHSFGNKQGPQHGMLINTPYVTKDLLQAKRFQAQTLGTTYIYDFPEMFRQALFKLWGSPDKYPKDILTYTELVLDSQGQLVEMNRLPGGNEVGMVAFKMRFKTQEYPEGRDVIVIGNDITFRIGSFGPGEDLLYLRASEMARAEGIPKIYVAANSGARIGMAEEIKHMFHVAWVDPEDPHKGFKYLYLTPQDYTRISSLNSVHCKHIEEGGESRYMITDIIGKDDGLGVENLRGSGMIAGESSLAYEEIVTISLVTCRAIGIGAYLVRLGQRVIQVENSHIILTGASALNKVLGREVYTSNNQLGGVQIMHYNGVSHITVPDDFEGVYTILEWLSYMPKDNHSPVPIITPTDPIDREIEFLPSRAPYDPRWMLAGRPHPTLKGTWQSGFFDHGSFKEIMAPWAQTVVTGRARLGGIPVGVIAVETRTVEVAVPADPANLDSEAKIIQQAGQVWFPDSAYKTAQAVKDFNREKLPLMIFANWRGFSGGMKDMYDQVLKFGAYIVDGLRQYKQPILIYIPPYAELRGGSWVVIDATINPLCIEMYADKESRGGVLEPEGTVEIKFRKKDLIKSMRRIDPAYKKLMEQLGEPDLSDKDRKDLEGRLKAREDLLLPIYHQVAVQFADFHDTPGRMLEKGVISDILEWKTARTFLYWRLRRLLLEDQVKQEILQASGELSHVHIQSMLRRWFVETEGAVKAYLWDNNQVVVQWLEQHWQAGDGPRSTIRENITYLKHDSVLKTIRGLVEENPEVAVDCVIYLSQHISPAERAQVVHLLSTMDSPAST
# Assay comment: In vitro ACC inhibition assay (ADP-Glo), hACC2
# Type: biochemical
# Condition context: Table 2a, 5 nM ACC2, 20 μM ATP, 20 μM acetyl-CoA
Endpoint label: IC50

Field IC50 (human (hACC2) (Homo sapiens, UniProt O00763)), entry COc1ccc(F)cc1[C@H](Cn1c(=O)n(C(C)(C)C(=O)NC(C)C)c(=O)c2c(C)c(-n3nccn3)sc21)OCCC#N [Compound I-91] : 10 to 40 nM

Record COc1ccc(F)cc1[C@H](Cn1c(=O)n(C(C)(C)C(=O)N2CCCC2)c(=O)c2c(C)c(-n3nccn3)sc21)OCCO [Compound I-44] ; system human (hACC2) (Homo sapiens, UniProt O00763); IC50 = 5 to 10 nM

# lookup: COc1ccc(F)cc1[C@H](Cn1c(=O)n([C@@H](C)C(=O)N(C)C(C)C)c(=O)c2c(C)c(-n3nccn3)sc21)O[C@H]1CC[C@@H](O)CC1 [Compound I-167] on human (hACC2) (Homo sapiens, UniProt O00763), IC50 = 5 to 10 nM
